target: CCKB receptor (guinea pig cerebral cortex) (Cavia porcellus); construct: CCKB (nM); other: guinea pig cerebral cortex membranes, 125I-Bolton-Hunter CCK 25 pM; Activity CCK-B [μM]; guinea pig cerebral cortex membranes; test: 125I-CCK-8 receptor binding assay, CCKB; conditions: Table 2; guinea pig cerebral cortex membranes; read-out: Activity CCK-B [μM] (IC50)
Sequence (H0VZC5 1-426): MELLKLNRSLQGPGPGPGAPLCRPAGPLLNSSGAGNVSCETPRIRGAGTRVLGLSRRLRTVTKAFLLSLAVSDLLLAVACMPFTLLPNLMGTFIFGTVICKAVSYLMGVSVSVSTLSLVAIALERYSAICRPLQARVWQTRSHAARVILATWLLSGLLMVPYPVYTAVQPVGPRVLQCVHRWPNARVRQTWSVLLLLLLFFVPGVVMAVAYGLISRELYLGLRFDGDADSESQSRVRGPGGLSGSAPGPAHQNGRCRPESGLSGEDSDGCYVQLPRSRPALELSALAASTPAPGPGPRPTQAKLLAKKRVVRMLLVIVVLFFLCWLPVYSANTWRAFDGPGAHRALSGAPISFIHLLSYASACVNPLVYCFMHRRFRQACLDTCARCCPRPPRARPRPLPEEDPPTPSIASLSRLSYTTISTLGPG
quantity: IC50

// IC50 value for CCCCCCCCCCCCNC1=C(Cl)C(=O)OC1OC (centres unmarked) [Example A8B10] : 2.5 µM

Per the record, CC(C)OC1OC(=O)C(Cl)=C1N1CCc2ccccc21 (centres unmarked) [Example 9] has IC50 of 2.5 µM

response.value for COC1OC(=O)C(Cl)=C1N1CCC(c2ccccc2)CC1 (centres unmarked) [Example A8B11] (field: IC50) = 3 µM

// recorded IC50 for COC1OC(=O)C(Cl)=C1N1CCN(Cc2ccccc2)CC1 (centres unmarked) [Example A8B16] : 16 µM

// sample CCCCCCCCCCCCCCCCOC1OC(=O)C(Cl)=C1n1cc(C)cc1C (centres unmarked) [Example A7B23] , its IC50 was 0.86 µM

The measurements presented in this section are drawn from patent US20070123718A1.
